Test system: B. cereus 98/2620
Assay: microbe, parasite or virus in culture
Type: cell-based
Conditions: Bacillus cereus
Assay Metric: MIC (µg/mL)
Entry rule: numbers only, all in µg/mL.

Examples from the recorded data:
{"Compound": "CN[C@H](CC(C)C)C(=O)N[C@H]1C(=O)N[C@@H](CC(N)=O)C(=O)N[C@H]2C(=O)N[C@H]3C(=O)N[C@H](C(=O)N[C@H](C(=O)O)c4cc(O)cc(O)c4-c4cc3ccc4O)[C@H](O)c3ccc(c(Cl)c3)Oc3cc2cc(c3O[C@@H]2O[C@H](CO)[C@@H](O)[C@H](O)[C@H]2O[C@H]2C[C@](C)(N)[C@H](O)[C@H](C)O2)Oc2ccc(cc2Cl)[C@H]1O", "Units Of Measure": "µg/mL", "MIC": 1}
{"Compound": "CN(C)c1ccc(O)c2c1C[C@H]1C[C@H]3[C@H](N(C)C)C(O)=C(C(N)=O)C(=O)[C@@]3(O)C(O)=C1C2=O [Minocycline, reference compound]", "Units Of Measure": "µg/mL", "MIC": 0.5}
{"Compound": "C[C@H]1c2cccc(O)c2C(=O)C2=C(O)[C@]3(O)C(=O)C(C(N)=O)=C(O)[C@@H](N(C)C)[C@@H]3[C@@H](O)[C@@H]21 [Doxycycline, reference compound]", "Units Of Measure": "µg/mL", "MIC": 4}

Then there is this compound:
Identify measured MIC associated with CCC[C@@H]1C[C@@H](C(=O)N[C@@H]([C@H]2O[C@H](SC)[C@H](O)[C@@H](O)[C@H]2O)[C@H](C)Cl)N(C)C1
0.25

---

Quick reference: MIC of the listed items.
System: S. aureus MRSA5
Assay: microbe, parasite or virus in culture
Type: cell-based
Conditions: Staphylococcus aureus
Entry rule: numbers only, all in µg/mL.

{"Compound": "CN(Cc1ccccc1F)Cc1cc(N(C)C)c2c(c1O)C(=O)C1=C(O)[C@]3(O)C(=O)C(C(N)=O)=C(O)[C@@H](N(C)C)[C@@H]3C[C@@H]1C2", "Target Desc": "S. aureus MRSA5", "MIC (µg/mL)": 0.5}
{"Compound": "CC1CN(C2CCN(Cc3cc(N(C)C)c4c(c3O)C(=O)C3=C(O)[C@]5(O)C(=O)C(C(N)=O)=C(O)[C@@H](N(C)C)[C@@H]5C[C@@H]3C4)CC2)CC(C)O1 (stereo partly drawn)", "Target Desc": "S. aureus MRSA5", "MIC (µg/mL)": 1}
{"Compound": "CN(C)[C@@H]1C(O)=C(C(N)=O)C(=O)[C@@]2(O)C(O)=C3C(=O)c4c(O)ccc(C#Cc5ccc(N)cc5)c4C[C@H]3C[C@@H]12", "Target Desc": "S. aureus MRSA5", "MIC (µg/mL)": 0.5}
{"Compound": "CC(CF)N(C)Cc1cc(N(C)C)c2c(c1O)C(=O)C1=C(O)[C@]3(O)C(=O)C(C(N)=O)=C(O)[C@@H](N(C)C)[C@@H]3C[C@@H]1C2 (stereo partly drawn)", "Target Desc": "S. aureus MRSA5", "MIC (µg/mL)": 1}
{"Compound": "CO/N=C/c1cc(-c2ccc(O)c3c2C[C@H]2C[C@H]4[C@H](N(C)C)C(O)=C(C(N)=O)C(=O)[C@@]4(O)C(O)=C2C3=O)ccc1OC", "Target Desc": "S. aureus MRSA5", "MIC (µg/mL)": 1}
{"Compound": "CN(CCC(F)(F)F)Cc1cc(N(C)C)c2c(c1O)C(=O)C1=C(O)[C@]3(O)C(=O)C(C(N)=O)=C(O)[C@@H](N(C)C)[C@@H]3C[C@@H]1C2", "Target Desc": "S. aureus MRSA5", "MIC (µg/mL)": 0.5}

Look up S. aureus MRSA5 data: MIC of CO/N=C(\C)c1cc(CNCC(C)(C)C)c(O)c2c1C[C@H]1C[C@H]3[C@H](N(C)C)C(O)=C(C(N)=O)C(=O)[C@@]3(O)C(O)=C1C2=O , then report it.
0.25

Look up S. aureus MRSA5 data: MIC of CCCCN(CCCC)Cc1cc(N(C)C)c2c(c1O)C(=O)C1=C(O)[C@]3(O)C(=O)C(C(N)=O)=C(O)[C@@H](N(C)C)[C@@H]3C[C@@H]1C2 , then report it.
1

Look up S. aureus MRSA5 data: MIC of CN(C)[C@@H]1C(O)=C(C(N)=O)C(=O)[C@@]2(O)C(O)=C3C(=O)c4c(O)ccc(C#Cc5ccccn5)c4C[C@H]3C[C@@H]12 , then report it.
0.5

Look up S. aureus MRSA5 data: MIC of C=CCN(C)Cc1cc(C(C)C)c2c(c1O)C(=O)C1=C(O)[C@]3(O)C(=O)C(C(N)=O)=C(O)[C@@H](N(C)C)[C@@H]3C[C@@H]1C2 , then report it.
0.5

Look up S. aureus MRSA5 data: MIC of CN(CCCc1cc(N(C)C)c2c(c1O)C(=O)C1=C(O)[C@]3(O)C(=O)C(C(N)=O)=C(O)[C@@H](N(C)C)[C@@H]3C[C@@H]1C2)Cc1ccccc1 , then report it.
2

Look up S. aureus MRSA5 data: MIC of CN(C)c1ccc(O)c2c1C[C@H]1C[C@H]3[C@H](N(C)C)C(O)=C(C(N)=O)C(=O)[C@@]3(O)C(O)=C1C2=O [Minocycline, reference compound] , then report it.
2
